Value source: PubChem BioAssay (NCI)

- assayName: NCI Yeast Anticancer Drug Screen. Data for the sgs1 mgt1 strain (AID 161);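 further: 0% = growth of cultures given vehicle only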
- testConditions: S. cerevisiae sgs1 mgt1 strain, at 50.0 µM, active compounds read high
The panel holds about 79,000 compounds, 15% with a hit somewhere; the sample as a whole holds those more often.
outcomeMeasure: growth inhibition (%)
I only need the number, in %, no unit after it.

Reported growth inhibition for CCCCCC#CC1OC1(C)C (stereo not given) was -2.8

Reported growth inhibition for NC1=C(O)C(=O)C(c2ccc3c(c2)CCC3)O1 (stereo not given) was -22.4

Reported growth inhibition for CCOC(=O)/C(C#N)=C/c1ccc(C)o1 was 27.4

Reported growth inhibition for COc1cc(C2CC(C)(OC)Oc3cc4c(cc32)OCO4)cc(OC)c1OC (stereo not given) was 2.7

Reported growth inhibition for CN=C1N[N+]2=CCCCC2S1 (stereo not given) was 19.7

Next:
Reported growth inhibition for COc1nc(NC2OC(CO)C(O)C(O)C2O)c(Br)c(=O)n1C (stereo not given) was -3.6

Reported growth inhibition for O=C(O)C(=Cc1ccc(Br)cc1)C(=O)O was 13.5

Reported growth inhibition for O=C(O)c1cc(=O)c2cc(Cl)ccc2[nH]1 was -17.1

Reported growth inhibition for O=c1c2ccccc2oc2nc3ccc(Cl)cc3n12 was 0.45

Reported growth inhibition for COc1cc(OC)c2[nH]c3c(c(=O)c2c1)C(=O)c1[nH]c2c(OC)cc(OC)cc2c(=O)c1C3=O was 12.8

Reported growth inhibition for Cc1cc(C)c(S(=O)(=O)c2cccs2)c(C)c1 was -8.25

Reported growth inhibition for CC1=C(c2cc(C(=O)Nc3nccs3)nc(NC#N)n2)Sc2ccccc2N1 was -8.65

Reported growth inhibition for NC(=S)c1ccccn1 was 32.8

Reported growth inhibition for CC(C)CCCC(C)C1CCC2C3CC=C4CC(OP(=O)(N5CC5)N5CC5)CCC4(C)C3CCC12C (stereo not given) was 11.4

Reported growth inhibition for C1=CCOCOC1 was -2.35

Reported growth inhibition for CCOC(OCC)C(O)c1ccccc1 (stereo not given) was -11.9

Reported growth inhibition for COc1cc(O)c(C(C)c2ccccc2)cc1N=O (stereo not given) was -4.4

Reported growth inhibition for c1ccc2cc(N3CCOCC3)ccc2c1 was -7.3

Reported growth inhibition for CC1S/C(=N\N=C\c2ccc(Cl)cc2)N=C1c1c(O)c2ccccc2oc1=O (stereo not given) was 57.4

Reported growth inhibition for COc1ccc(-c2oc3cc(OC)c(OC)c(O)c3c(=O)c2OC)cc1 was 3.05

---

Known growth inhibition of a selection of compounds
- assayName: NCI Yeast Anticancer Drug Screen. Data for the rad50 strain (AID 155);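 further: 0% = growth of vehicle-only cultures of the same strain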
- testConditions: S. cerevisiae rad50 strain growth inhibition; at 50.0 µM; active compounds read high
This is part of a sample that, as a whole, favours compounds with a hit. Of some 79,000 tested, about 15% had one in any assay.
I only need the number, in %, no unit after it.

Worked cases, answers included:
Reported growth inhibition for CC1=NN(C)C(=O)C1 was 1.45

Reported growth inhibition for COc1cc(C)cc(O)c1C=O was 9.9

Reported growth inhibition for COc1ccc(/C=C2\CCC(CCN(C)C)(C3=CCCC3)C2=O)cc1 (centres undefined) was 2.1

Reported growth inhibition for Cc1c(C)n2c(=O)n(-c3ccccc3)c(=O)n2c1=O was -38

Next:
Reported growth inhibition for Cc1ccc(C(=O)OCC2OC(Cl)CC2OC(=O)c2ccc(C)cc2)cc1 (centres undefined) was 22.6

Reported growth inhibition for COC(=O)c1ccc(OC)cc1O was 1.5

Reported growth inhibition for CC1=CC(=O)C(c2ccccc2)CC1 (centres undefined) was -0.2

Reported growth inhibition for C=CCO[Si](OCC=C)(OCC=C)OCC=C was 0.85

Reported growth inhibition for CCCNC(=O)c1ccccc1O was 9.95

Reported growth inhibition for C[C@@H]1C(=O)CC2(O)[C@@]13C[C@@H](OC(=O)[C@@H]3O)[C@@H](C)[C@@]21COC1=O (some centres undefined) was 13.8

Reported growth inhibition for Cc1ccc(OCC(O)CN2CCN(c3ccc(C)cc3)CC2)cc1 (centres undefined) was 26.6

Reported growth inhibition for Cc1cc2[nH]c(=O)n(C3OC(CO)C(O)C3O)c2cc1C (centres undefined) was -15.2

Reported growth inhibition for O=C(O)c1cc(-c2ccccc2)ccc1O was 27.8

Reported growth inhibition for Cc1[nH]c(=O)c2ccccc2c1O was 10.6

Reported growth inhibition for CCN(CC)CCCC(C)Nc1c2cc(OC)cc(C)c2nc2c(C)c(Cl)ccc12 (centres undefined) was 21.6
